test: yeast display, Sf9 membrane polyspecificity reagent, FACS + sequencing; frameworks hold sequencing errors
reported_property: polyreactivity (PSR sort gate)

chain_sequence	reported_measurement
QVQLVESGGGLVQAGGSLRLSCAASGRIFPHYARGWYRQAPGKERELFAAINVDGGRTYYADSVKGRFTISRDNAKNTVYLQLTSLKPEDTAVYYCAAKPVLYHEQDYGYAVEFNYWGQGTQVTVSS	low polyreactivity
QVQLVESGGGLVQAGGSLRLSCAASGRIFNHYAMGWYRQAPGKERELVATISATGGSTYYADSVKGRFTISRDNAKNTVYLQMNSLNPEDTAVYYCNAGHLWYWRTRSARRVGMVYWGQGTQVTVSS	low polyreactivity
